Cited source: PubChem BioAssay

Assay: CREB reporter modulators under forskolin, primary screen, cell-based, PC12, CRE-LacZ reporter, forskolin-stimulated (AID 1146);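 further: PC12 cells with 6xCRE LacZ reporter stimulated by forskolin 10 µM; beta-galactosidase reporter signal reflecting CREB driven transcription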
Conditions: luminescence, 4.5 h, higher = more signal, called active from +8 up or from −8 down
Attribute: z-score
MEASUREMENT LABEL: z-score

>>> data_value("O=C(c1ccccc1)N1Cc2ccccc2[C@@H]2OC(c3ccc(OCCCO)cc3)=N[C@]2(Cc2ccccc2)C1=O")
0.715
>>> data_value("CCOC(=O)C[C@H]1[C@H](OC(=O)Cc2ccc3c(c2)OCO3)[C@@H](NC(=O)c2ccc(-c3ccccc3)cc2)c2cc(OCCCO)ccc2N1C(=O)c1ccc2ccccc2n1")
-0.87
>>> data_value("CC(C)(C)OC(=O)CC[C@@]1(C(=O)NCCN2CCOCC2)N=C(c2ccc(OCCCO)cc2)O[C@@H]1c1ccccc1N=[N+]=[N-]")
-0.564
>>> data_value("CC1(C)[C@@H]2CC(C(O)C3C=CC4C(=O)N(c5ccccc5)C(=O)C4N3Nc3ccccc3)=C[C@H]1C2 (stereo partly drawn)")
0.874
>>> data_value("O=C1[C@H]2C=C(Br)[C@H](C[C@@H]2OCCCCO)[C@@]12CO2")
0.533
>>> data_value("COC(=O)[C@@]1(Cc2ccc(OC)cc2)[C@H]2c3cc(C(=O)N(C)C)n(Cc4cccc5ccccc45)c3C[C@H]2CN1C(=O)c1ccccc1")
0.458
>>> data_value("COc1ccc([C@H]2C[C@H]3C(Br)=C[C@@H]2C(=O)[C@]32CO2)cc1")
0.357
>>> data_value("C=CCNC(=O)[C@H]1[C@@H]2C(=O)O[C@@H](c3ccccc3)[C@@H](c3ccccc3)N2[C@@H](c2ccccc2OCCO)[C@]12C(=O)Nc1ccc(C#CC3=CCCCC3)cc12")
1.05
>>> data_value("COc1ccc(CCNC(=O)[C@@]2(Sc3ccc(C)cc3)CC(=O)N(C3CCCCC3)[C@@H]2c2ccc(CO)cc2I)cc1")
1.19
>>> data_value("C[C@@H]1ON(c2cccc(C(=O)OC(C)(C)C)c2)[C@H](c2ccc(Br)cc2)[C@H]1C(=O)N1C(=O)OC[C@H]1Cc1ccccc1")
-0.278
>>> data_value("O=C1OCCC/C=C\\[C@H]2OC34C=CCN(c5ccc6ccccc6c5)C(=O)[C@H]3N(CCCCCCO)C(=O)[C@@H]4C12 (stereo partly drawn)")
-0.677
>>> data_value("CC(C)C[C@@H]1NC(=O)[C@H]2C[C@@H](C(=O)NCCCCCCN)[C@@H](c3ccc(O)cc3)N2C1=O")
1.08
>>> data_value("C[N+](C)(C)CCCCNC(=O)[C@H]1C[C@H]2C(=O)N[C@@H](Cc3ccccc3)C(=O)N2[C@H]1c1ccc(O)cc1")
0.465
>>> data_value("COc1ccc(C(=O)Nc2ccc(CN3C(=O)[C@@]4(O[C@@H](CCn5cc([C@H](O)c6ccccc6)nn5)[C@H]([Si](C)(C)c5ccc(OC)cc5)[C@H]4C)c4ccccc43)cc2)cc1")
-1.04
>>> data_value("C=CCC(OC(C)=O)[C@@H]1[C@@H](N(Cc2ccc(-c3ccccc3)cc2)C(=O)Cc2ccc(F)cc2)c2cc(OCCCO)ccc2N1C(=O)c1ccc(-c2ccccc2)cc1 (stereo partly drawn)")
-0.0988
>>> data_value("O=C1O[C@H](c2ccccc2)[C@H](c2ccccc2)N2[C@H]1[C@@H](C(=O)Nc1nc3ccccc3s1)[C@]1(C(=O)Nc3ccc(C#CCCO)cc31)[C@H]2c1ccc(OCCO)cc1")
0.806
>>> data_value("CCOC(=O)C[C@H]1[C@H](OC(=O)c2ccc(C(=O)c3ccccc3)cc2)[C@@H](NC(=O)c2ccc(-c3ccccc3)cc2)c2cc(OCCCO)ccc2N1C(=O)c1ccccc1")
-0.254
>>> data_value("O=C1NC(=O)C2C1C=CC(C(O)Cc1ccccc1)N2Nc1ccc(Cl)cc1Cl (stereo not drawn)")
0.115
>>> data_value("C=C(CCCC)C(=O)CC[C@H](OC(=O)c1cccnc1)c1ccccc1OCCO")
1.94
>>> data_value("CC(C)C[C@@H]1NC(=O)[C@@H]2C[C@H](C(=O)NCCCCCN)[C@H](c3cccc(OCCO)c3)N2C1=O")
0.442
>>> data_value("Cc1ccc(S[C@]2(C(=O)NCC(C)C)CC(=O)N(Cc3cc(C(F)(F)F)cc(C(F)(F)F)c3)[C@@H]2c2ccc(CO)cc2I)cc1")
0.845
>>> data_value("COc1ccc(C(O)C2C=CC3C(=O)N(c4ccccc4)C(=O)C3N2Nc2ccccc2F)cc1OCc1ccccc1 (stereo not drawn)")
-0.269
>>> data_value("CCCCC=C[C@@H](NC(=O)Oc1cccc(C(F)(F)F)c1)c1ccccc1")
0.0897
>>> data_value("COc1ccc(C(=O)Nc2ccc(CN3C(=O)[C@@]4(O[C@@H](CCO)[C@H]([Si](C)(C)c5ccc(OC)cc5)[C@H]4C)c4ccccc43)cc2)cc1")
-1.27
>>> data_value("COC(=O)[C@@]1(Cc2ccccc2)[C@H]2c3cc(C(=O)N(C)C)n(CCSCCO)c3C[C@H]2CN1C(=O)c1ccccc1")
0.695
>>> data_value("COc1ccc(CCN2C(=O)[C@@]3(c4ccc([N+](=O)[O-])cc4)CC(=O)N(C4CCCCC4)[C@@H]3c3ccc(CO)cc32)cc1")
0.86
>>> data_value("CC(C)OC(=O)C=C1C[C@@H](c2ccccc2C(F)(F)F)O[C@@H](c2ccccc2C(F)(F)F)O1")
1.22
>>> data_value("CN1C(=O)C2C=CC(C(O)C3CCCCC3)N(Nc3ccc([N+](=O)[O-])cc3[N+](=O)[O-])C2C1=O (stereo not drawn)")
1.37
